# assay_target: T1, human IL-23 (Sino Biological, CT048-H08H) (human, UniProt Q9NPF7 20-189; P29460 23-328)
# T1 construct: also called human IL-23 protein; Human IL-23 p19
# T1 sequence (looked up) 1: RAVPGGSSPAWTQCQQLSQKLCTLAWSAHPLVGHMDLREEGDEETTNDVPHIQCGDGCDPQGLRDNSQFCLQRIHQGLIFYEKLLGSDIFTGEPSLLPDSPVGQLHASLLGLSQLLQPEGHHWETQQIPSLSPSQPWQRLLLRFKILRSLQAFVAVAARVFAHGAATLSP
# T1 sequence (looked up) 2: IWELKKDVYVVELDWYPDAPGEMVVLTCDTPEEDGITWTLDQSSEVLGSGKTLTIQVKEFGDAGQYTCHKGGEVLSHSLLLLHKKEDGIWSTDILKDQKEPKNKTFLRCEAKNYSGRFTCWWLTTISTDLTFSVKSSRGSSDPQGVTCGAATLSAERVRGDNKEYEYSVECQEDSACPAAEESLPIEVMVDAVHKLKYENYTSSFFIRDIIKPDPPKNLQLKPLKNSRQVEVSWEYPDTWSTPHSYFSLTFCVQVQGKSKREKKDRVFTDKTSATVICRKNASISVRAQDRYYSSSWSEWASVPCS
# assay_procedure: SPR (Biacore), Protein A capture of sample, 1:1 model
Overview of recorded pKd for various binders
As a rule, pKd stands for the negative log10 of the concentration, concentration in M.

Reference set (4 entries):
Hu38-6 (antibody, human IgG1, kappa, L234A L235A, V domains shown, humanized mAb38, IgG1/kappa) VH: EVQLVQSGAEVKKPGASVKVSCKASGYSFTDHNMNWVRQAPGQRLEWMGVINPNYGTTTYNQKFKGRVTITVDTSASTAYMELSSLRSEDTAVYYCARRGFAYWGQGTLVTVSS VL: DIVMTQTPLSLPVTPGEPASISCRSSKSLLYKDGKTYLNWFLQKPGQSPQLLIYLMSTRASGVPDRFSGSGSGTDLTLKISRVEAEDVGVYYCQQIAEYPFTFGSGTKLEIKR : 9.84
Hu38-13 (antibody, human IgG1, kappa, L234A L235A, V domains shown, humanized mAb38, IgG1/kappa) VH: EFQLVQSGAEVKKPGASVKVSCKASGYSFTDHNMNWVRQAPGQSLEWMGVINPNYGTTTYNQKFKGRVTITVDQSASTAYMELSSLRSEDTAVYYCARRGFAYWGQGTLVTVSS VL: DIVMTQTPLSLPVTPGEPASISCRSSKSLLYKDGKTYLNWYLQKPGQSPQLLIYLMSTRASGVPDRFSGSGSGTDFTLKISRVEAEDVGVYYCQQIAEYPFTFGSGTKLEIKR : 9.57
Hu38-1 (antibody, human IgG1, kappa, L234A L235A, V domains shown, humanized mAb38, IgG1/kappa) VH: EFQLVQSGAEVKKPGASVKVSCKASGYTFTDHNMNWVRQAPGQRLEWMGVINPNYGTTTYNQKFKGRVTITVDTSASTAYMELSSLRSEDTAVYYCARRGFAYWGQGTLVTVSS VL: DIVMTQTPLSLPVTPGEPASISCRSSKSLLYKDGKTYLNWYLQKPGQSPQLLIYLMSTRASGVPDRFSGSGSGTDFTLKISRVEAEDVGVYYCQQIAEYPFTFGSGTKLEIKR : 9.69
Hu38-4 (antibody, human IgG1, kappa, L234A L235A, V domains shown, humanized mAb38, IgG1/kappa) VH: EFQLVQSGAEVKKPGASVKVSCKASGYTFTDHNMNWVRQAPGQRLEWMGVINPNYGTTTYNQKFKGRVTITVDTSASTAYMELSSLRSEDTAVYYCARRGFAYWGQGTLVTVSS VL: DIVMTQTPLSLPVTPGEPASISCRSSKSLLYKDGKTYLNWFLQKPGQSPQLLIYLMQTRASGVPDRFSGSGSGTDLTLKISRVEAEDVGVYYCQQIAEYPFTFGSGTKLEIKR : 9.71

Now take the following binder into account.
Asked: Requested field: pKd. Item: risankizumab (antibody, human IgG1, kappa, L234A L235A, V domains shown, control anti-IL-23 antibody; also called control molecule) VH: QVQLVQSGAEVKKPGSSVKVSCKASGYTFTDQTIHWMRQAPGQGLEWIGYIYPRDDSPKYNENFKGKVTITADKSTSTAYMELSSLRSEDTAVYYCAIPDRSGYAWFIYWGQGTLVTVSS VL: DIQMTQSPSSLSASVGDRVTITCKASRDVAIAVAWYQQKPGKVPKLLIYWASTRHTGVPSRFSGSGSRTDFTLTISSLQPEDVADYFCHQYSSYPFTFGSGTKLEIKR
Given back: 10.19
